ASSAYED_TARGET: Phosphatidylinositol 3-kinase regulatory subunit alpha/4,5-bisphosphate 3-kinase catalytic subunit beta isoform (Homo sapiens, UniProt P42338)
Sequence (P27986 whole entry, canonical isoform): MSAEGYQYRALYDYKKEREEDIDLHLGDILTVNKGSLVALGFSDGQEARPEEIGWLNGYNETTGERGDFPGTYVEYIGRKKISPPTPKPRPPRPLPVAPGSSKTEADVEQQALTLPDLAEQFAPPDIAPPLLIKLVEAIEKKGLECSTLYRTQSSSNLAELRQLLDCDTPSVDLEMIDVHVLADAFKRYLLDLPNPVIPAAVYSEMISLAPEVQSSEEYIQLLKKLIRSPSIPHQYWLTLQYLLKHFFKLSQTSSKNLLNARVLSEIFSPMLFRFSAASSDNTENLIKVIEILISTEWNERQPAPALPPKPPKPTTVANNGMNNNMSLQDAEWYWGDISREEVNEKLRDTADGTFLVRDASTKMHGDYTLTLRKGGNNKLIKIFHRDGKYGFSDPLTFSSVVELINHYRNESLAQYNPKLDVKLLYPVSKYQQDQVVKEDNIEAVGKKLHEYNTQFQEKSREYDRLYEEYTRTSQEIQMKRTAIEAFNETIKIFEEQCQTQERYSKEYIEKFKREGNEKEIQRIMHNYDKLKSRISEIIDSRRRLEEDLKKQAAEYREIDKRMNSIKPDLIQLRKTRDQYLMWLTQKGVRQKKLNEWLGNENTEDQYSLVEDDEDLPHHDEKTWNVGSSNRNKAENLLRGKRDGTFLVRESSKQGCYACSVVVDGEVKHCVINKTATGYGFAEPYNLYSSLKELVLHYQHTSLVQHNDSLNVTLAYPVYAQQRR
Sequence (P42338 whole entry, canonical isoform): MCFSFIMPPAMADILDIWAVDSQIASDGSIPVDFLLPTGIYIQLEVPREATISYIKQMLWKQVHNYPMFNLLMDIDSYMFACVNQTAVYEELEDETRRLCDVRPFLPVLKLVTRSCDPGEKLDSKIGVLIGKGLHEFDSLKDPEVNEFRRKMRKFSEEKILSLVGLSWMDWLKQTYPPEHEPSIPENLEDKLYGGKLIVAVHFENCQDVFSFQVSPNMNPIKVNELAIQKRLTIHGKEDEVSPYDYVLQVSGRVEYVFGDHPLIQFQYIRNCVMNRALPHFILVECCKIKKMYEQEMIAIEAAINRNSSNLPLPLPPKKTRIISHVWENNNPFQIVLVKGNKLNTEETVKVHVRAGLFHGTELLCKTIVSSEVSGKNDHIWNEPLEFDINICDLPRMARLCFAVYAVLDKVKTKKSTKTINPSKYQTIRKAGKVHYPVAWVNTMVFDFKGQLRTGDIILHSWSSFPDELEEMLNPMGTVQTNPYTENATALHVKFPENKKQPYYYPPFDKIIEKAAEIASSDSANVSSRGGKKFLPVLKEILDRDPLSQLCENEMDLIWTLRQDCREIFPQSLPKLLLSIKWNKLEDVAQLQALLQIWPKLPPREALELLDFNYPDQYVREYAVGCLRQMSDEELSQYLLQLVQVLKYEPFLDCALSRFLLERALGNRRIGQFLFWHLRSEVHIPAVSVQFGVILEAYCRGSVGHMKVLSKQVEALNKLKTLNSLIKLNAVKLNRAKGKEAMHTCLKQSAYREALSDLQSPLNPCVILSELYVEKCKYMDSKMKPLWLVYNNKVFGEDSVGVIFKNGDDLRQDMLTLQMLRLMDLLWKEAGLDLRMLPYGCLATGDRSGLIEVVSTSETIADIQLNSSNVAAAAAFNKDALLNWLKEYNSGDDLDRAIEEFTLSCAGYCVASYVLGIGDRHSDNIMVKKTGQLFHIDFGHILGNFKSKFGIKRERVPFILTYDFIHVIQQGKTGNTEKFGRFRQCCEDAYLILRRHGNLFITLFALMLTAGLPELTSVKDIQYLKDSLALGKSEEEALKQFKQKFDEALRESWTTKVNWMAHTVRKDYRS
TEST_DESCRIPTION: Determination of PI3K Activity
REPORTED_CONDITIONS: pH 7.4; 22 °C
PROPERTY_NAME: pIC50
One number for each entry, as −log10 of the molar value.

Give the measured pIC50 of Nc1nc(N)c2nc(-c3cccc4[nH]ccc34)cnc2n1 .
6.97

====

ASSAYED_TARGET: Phosphatidylinositol 3-kinase regulatory subunit alpha/4,5-bisphosphate 3-kinase catalytic subunit delta isoform (Homo sapiens, UniProt O00329)
Sequence (P27986 whole entry, canonical isoform): as the sequence (P27986 whole entry, canonical isoform) above
Sequence (O00329 whole entry, canonical isoform): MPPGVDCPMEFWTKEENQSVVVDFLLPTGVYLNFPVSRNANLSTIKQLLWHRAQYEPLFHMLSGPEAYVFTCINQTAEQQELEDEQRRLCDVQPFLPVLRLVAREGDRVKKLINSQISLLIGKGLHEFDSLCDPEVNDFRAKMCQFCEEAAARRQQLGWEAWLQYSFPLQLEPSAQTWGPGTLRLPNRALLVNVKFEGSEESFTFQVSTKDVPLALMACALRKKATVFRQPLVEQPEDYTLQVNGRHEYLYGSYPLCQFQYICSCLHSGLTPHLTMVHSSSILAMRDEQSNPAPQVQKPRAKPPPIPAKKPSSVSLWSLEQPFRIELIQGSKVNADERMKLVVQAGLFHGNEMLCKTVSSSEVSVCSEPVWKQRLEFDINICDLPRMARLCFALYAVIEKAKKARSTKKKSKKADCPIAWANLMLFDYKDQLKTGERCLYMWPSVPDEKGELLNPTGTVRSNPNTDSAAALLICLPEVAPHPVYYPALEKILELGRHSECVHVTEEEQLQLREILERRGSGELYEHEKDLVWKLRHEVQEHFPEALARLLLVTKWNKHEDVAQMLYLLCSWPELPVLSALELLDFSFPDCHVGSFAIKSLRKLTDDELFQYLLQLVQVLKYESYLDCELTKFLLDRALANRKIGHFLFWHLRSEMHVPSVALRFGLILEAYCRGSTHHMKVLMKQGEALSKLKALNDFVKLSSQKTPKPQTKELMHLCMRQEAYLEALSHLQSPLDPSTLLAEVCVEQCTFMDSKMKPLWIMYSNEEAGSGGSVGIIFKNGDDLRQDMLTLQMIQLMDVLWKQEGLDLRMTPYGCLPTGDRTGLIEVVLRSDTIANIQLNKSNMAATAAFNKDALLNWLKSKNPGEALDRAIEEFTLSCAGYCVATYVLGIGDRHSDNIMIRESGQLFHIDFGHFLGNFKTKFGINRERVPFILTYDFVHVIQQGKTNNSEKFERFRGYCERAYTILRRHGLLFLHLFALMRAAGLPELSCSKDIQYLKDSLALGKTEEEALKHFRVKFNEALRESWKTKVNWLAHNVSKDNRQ
TEST_DESCRIPTION: Determination of PI3K Activity
REPORTED_CONDITIONS: pH 7.4; 22 °C
PROPERTY_NAME: pIC50
Give bare numbers, as −log10 of the molar value.

O=c1cc(N2CCOCC2)oc2c(-c3ccccc3)cccc12    6.25

Okay, next one:
Give the measured pIC50 of Nc1nc(N)c2nc(-c3cccc4[nH]ccc34)cnc2n1 [6-(1H-indol-4-yl)pteridine-2,4-diamine] .
7.19
